- System: HCT-116 cells
- method-notes: MTT cytotoxicity assay, HCT-116
- Format: cell-based
- run-conditions: Homo sapiens, incubation time 24 h, mean ± SD (n = 3)
Below, each of the compounds is paired with its reported pIC50 value.
Keep it numeric: pIC50 is minus log10 of the concentration in mol/L.

The examples below pair each entry with its known result.
[[record]]
compound = "CC(=O)OC[C@H]1O[C@@H](SCc2cn(CCCOc3cccc4cccnc34)nn2)[C@H](OC(C)=O)[C@@H](OC(C)=O)[C@@H]1OC(C)=O [Compound 59]"
observation_type = "pIC50"
recorded_number = 3.76

[[record]]
compound = "O=C(Cn1cc(COc2cccc3cccnc23)nn1)Nc1ccc(S[C@@H]2O[C@H](CO)[C@@H](O)[C@H](O)[C@H]2O)nc1 [Compound 69]"
observation_type = "pIC50"
recorded_number = 3.68

[[record]]
compound = "CC(=O)OC[C@H]1O[C@@H](Sc2ccc(NC(=O)OCc3cn(CCCOc4cccc5cccnc45)nn3)cn2)[C@H](OC(C)=O)[C@@H](OC(C)=O)[C@H]1OC(C)=O [Compound 71]"
observation_type = "pIC50"
recorded_number = 4.04


With those in mind, consider the next compound.
compound CC(=O)OC[C@H]1O[C@@H](Sc2ccc(NC(=O)Cn3cc(COc4cccc5cccnc45)nn3)cn2)[C@H](OC(C)=O)[C@@H](OC(C)=O)[C@@H]1OC(C)=O [Compound 67] , pIC50 observed: 3.84

* * *

Below, each of the compounds is paired with its reported IC50 value.
- System: HCT-116 cells
- method-notes: MTT cytotoxicity assay, HCT-116
- Assay type: cell-based
- run-conditions: Homo sapiens, incubation time 24 h, mean ± SD (n = 3)

The examples below pair each entry with its known result.
[[record]]
compound = "C#CCOC(=O)Nc1ccc(S[C@@H]2O[C@H](COC(C)=O)[C@@H](OC(C)=O)[C@H](OC(C)=O)[C@H]2OC(C)=O)nc1 [Compound 36]"
observation_type = "IC50"
result = "125 µM"

[[record]]
compound = "C#CCOC(=O)Nc1ccc(S[C@@H]2O[C@H](CO)[C@@H](O)[C@H](O)[C@H]2O)nc1 [Compound 38]"
observation_type = "IC50"
result = "> 800 µM"

[[record]]
compound = "C#CCOC(=O)Nc1ccc(S[C@@H]2O[C@H](COC(C)=O)[C@H](OC(C)=O)[C@H](OC(C)=O)[C@H]2OC(C)=O)nc1 [Compound 37]"
observation_type = "IC50"
result = "457 µM"


compound Cc1ccc2cccc(OCCCn3cc(CS[C@@H]4O[C@H](CO)[C@H](O)[C@H](O)[C@H]4O)nn3)c2n1 [Compound 66] , IC50 observed: > 800 µM

compound CC(=O)OC[C@H]1O[C@@H](SCc2cn(CCCOc3cccc4cccnc34)nn2)[C@H](OC(C)=O)[C@@H](OC(C)=O)[C@H]1OC(C)=O [Compound 60] , IC50 observed: 305 µM

* * *

- Test system: HCT-116 cells
- method-notes: MTT cytotoxicity assay, HCT-116
- Type: cell-based
- run-conditions: Homo sapiens, incubation time 24 h, mean ± SD (n = 3)
Below, each of the compounds is paired with its reported IC50 value.

compound `O=C(Nc1ccc(S[C@@H]2O[C@H](CO)[C@@H](O)[C@H](O)[C@H]2O)nc1)OCc1cn(CCCOc2cccc3cccnc23)nn1` , IC50 observed: > 800 µM

compound Oc1cccc2cccnc12 [Compound 8HQ, 8-hydroxyquinoline] , IC50 observed: > 800 µM

compound `Cc1ccc2cccc(OCCCn3cc(CS[C@@H]4O[C@H](CO)[C@@H](O)[C@H](O)[C@H]4O)nn3)c2n1` , IC50 observed: > 800 µM
